- Type: cell-based, human
- condition.set: human, Cell viability (%)
Bridge positions count the residues as written; N and C are the ends. Square brackets hold non-standard residues; d marks the D form. Peptide text beside a SMILES is read from it.
assay.readout: viability at 24 h, 100 µM

CC[C@H](C)[C@H](NC(=O)[C@H](CCCNC(=N)N)NC(=O)[C@H]1CCC(=O)NCCCC[C@H](NC(=O)[C@H](Cc2ccccc2)NC(=O)[C@H](Cc2c[nH]c3ccccc23)NC(=O)[C@@H]2CCCN2C(=O)[C@@H](NC(=O)[C@@H](N)Cc2ccccc2)C(C)C)C(=O)N[C@@H](CCCNC(=N)N)C(=O)N[C@@H](Cc2ccccc2)C(=O)N[C@H](CC(C)C)C(=O)N1)C(=O)N[C@@H](CC(C)C)C(N)=O [Peptide 9, FVPWF[KRFle]RIL] (H-FVPWFKRF[dL][dE]RIL-NH2; lactam 6-10); 4%
CC[C@H](C)[C@H](NC(=O)[C@H](CCCNC(=N)N)NC(=O)[C@@H]1CCCCNC(=N)NCCCC[C@H](NC(=O)[C@H](Cc2ccccc2)NC(=O)[C@H](Cc2c[nH]c3ccccc23)NC(=O)[C@@H]2CCCN2C(=O)[C@@H](NC(=O)[C@@H](N)Cc2ccccc2)C(C)C)C(=O)N[C@@H](CCCCN)C(=O)N[C@@H](Cc2ccccc2)C(=O)N[C@H](CC(C)C)C(=O)N1)C(=O)N[C@@H](CC(C)C)C(N)=O [Peptide 11, FVPWF{KKFlK}RIL]; 2%

---

- Assay type: cell-based, human
- condition.set: human, Cell viability (%)
Bridge positions count the residues as written; N and C are the ends. Square brackets hold non-standard residues; d marks the D form. Peptide text beside a SMILES is read from it. * marks the point of attachment. Pro(cis-4-guanidino) = NC(N)=N[C@@H]1CN[C@H](C(=O)O)C1; Propanoyl(3-guanidino) = N=C(N)NCCC(=O)*
assay.readout: viability at 2 h, 100 µM (%)

CC[C@H](C)[C@H](NC(=O)[C@H](CCCNC(=N)N)NC(=O)[C@@H]1CCCCNC(=N)NCCCC[C@H](NC(=O)[C@H](Cc2ccccc2)NC(=O)[C@H](Cc2c[nH]c3ccccc23)NC(=O)[C@@H]2CCCN2C(=O)[C@@H](NC(=O)[C@@H](N)Cc2ccccc2)C(C)C)C(=O)N[C@@H](CCCCN)C(=O)N[C@@H](Cc2ccccc2)C(=O)N[C@H](CC(C)C)C(=O)N1)C(=O)N[C@@H](CC(C)C)C(N)=O [Peptide 11, FVPWF{KKFlK}RIL]; 10
CC[C@H](C)[C@H](NC(=O)[C@H](CCCNC(=N)N)NC(=O)[C@H]1CCCCNC(=N)NCCCC[C@H](NC(=O)[C@H](Cc2ccccc2)NC(=O)[C@H](Cc2c[nH]c3ccccc23)NC(=O)[C@@H]2CCCN2C(=O)[C@@H](NC(=O)[C@@H](N)Cc2ccccc2)C(C)C)C(=O)N[C@@H](CCCCN)C(=O)N[C@@H](Cc2ccccc2)C(=O)N[C@H](CC(C)C)C(=O)N1)C(=O)N[C@@H](CC(C)C)C(N)=O [Peptide 12, FVPWF{KKFlk}RIL]; 10
CC[C@H](C)[C@H](NC(=O)[C@H](CCCNC(=N)N)NC(=O)[C@H]1CCC(=O)NCCCC[C@H](NC(=O)[C@H](Cc2ccccc2)NC(=O)[C@H](Cc2c[nH]c3ccccc23)NC(=O)[C@@H]2C[C@H](NC(=N)N)CN2C(=O)[C@@H](NC(=O)[C@@H](N)Cc2ccccc2)C(C)C)C(=O)N[C@@H](CCCCN)C(=O)N[C@@H](Cc2ccccc2)C(=O)N[C@H](CC(C)C)C(=O)N1)C(=O)N[C@@H](CC(C)C)C(N)=O [Peptide 7, FV(4-guanidino)PWF[KKFle]RIL] (H-FV[Pro(cis-4-guanidino)]WFKKF[dL][dE]RIL-NH2; lactam 6-10); 8
CC[C@H](C)[C@H](NC(=O)[C@H](CCCNC(=N)N)NC(=O)[C@H]1CCC(=O)NCCCC[C@H](NC(=O)[C@H](Cc2ccccc2)NC(=O)[C@H](Cc2c[nH]c3ccccc23)NC(=O)[C@@H]2CCCN2C(=O)[C@@H](NC(=O)[C@H](Cc2ccccc2)NC(=O)CCNC(=N)N)C(C)C)C(=O)N[C@@H](CCCCN)C(=O)N[C@@H](Cc2ccccc2)C(=O)N[C@H](CC(C)C)C(=O)N1)C(=O)N[C@@H](CC(C)C)C(N)=O [Peptide 4, guanidino-βAla-FVPWF[KKFle]RIL] ({Propanoyl(3-guanidino)}-FVPWFKKF[dL][dE]RIL-NH2; lactam 6-10); 8

---

- Type: cell-based, human
- condition.set: human, Cell viability (%)
Bridge positions count the residues as written; N and C are the ends. Square brackets hold non-standard residues; d marks the D form. Peptide text beside a SMILES is read from it. * marks the point of attachment. Butanoyl(4-guanidino) = N=C(N)NCCCC(=O)*
This listing pairs molecules with measured viability at 2 h, 12.5 µM.
assay.readout: viability at 2 h, 12.5 µM (%)

CC[C@H](C)[C@H](NC(=O)[C@H](CCCNC(=N)N)NC(=O)[C@H]1CCC(=O)NCCCC[C@H](NC(=O)[C@H](Cc2ccccc2)NC(=O)[C@H](Cc2c[nH]c3ccccc23)NC(=O)[C@@H]2CCCN2C(=O)[C@@H](NC(=O)[C@H](Cc2ccccc2)NC(=O)CCCNC(=N)N)C(C)C)C(=O)N[C@@H](CCCCN)C(=O)N[C@@H](Cc2ccccc2)C(=O)N[C@H](CC(C)C)C(=O)N1)C(=O)N[C@@H](CC(C)C)C(N)=O [Peptide 5, guanidino-GABA-FVPWF[KKFle]RIL] ({Butanoyl(4-guanidino)}-FVPWFKKF[dL][dE]RIL-NH2; lactam 6-10); 128
CC[C@H](C)[C@H](NC(=O)[C@H](CCCNC(=N)N)NC(=O)[C@H]1CCCCNC(=N)NCCCC[C@H](NC(=O)[C@H](Cc2ccccc2)NC(=O)[C@H](Cc2c[nH]c3ccccc23)NC(=O)[C@@H]2CCCN2C(=O)[C@@H](NC(=O)[C@@H](N)Cc2ccccc2)C(C)C)C(=O)N[C@@H](CCCCN)C(=O)N[C@@H](Cc2ccccc2)C(=O)N[C@H](CC(C)C)C(=O)N1)C(=O)N[C@@H](CC(C)C)C(N)=O [Peptide 12, FVPWF{KKFlk}RIL]; 88

---

- Test system: P. aeruginosa ATCC 27853
- assay.info: microbe, parasite or virus in culture
- Type: cell-based
- condition.set: ATCC 27853
Bridge positions count the residues as written; N and C are the ends. Square brackets hold non-standard residues; d marks the D form. Peptide text beside a SMILES is read from it. * marks the point of attachment. X1 = N=C(N)N[C@@H](Cc1ccccc1)C(=O)*
This listing pairs compounds with measured MIC.
assay.readout: MIC (µM)

CC[C@H](C)[C@H](NC(=O)[C@H](CCCNC(=N)N)NC(=O)[C@H]1CCC(=O)NCCCC[C@H](NC(=O)[C@H](Cc2ccccc2)NC(=O)[C@H](Cc2c[nH]c3ccccc23)NC(=O)[C@@H]2CCCN2C(=O)[C@@H](NC(=O)[C@H](Cc2ccccc2)NC(=N)N)C(C)C)C(=O)N[C@@H](CCCCN)C(=O)N[C@@H](Cc2ccccc2)C(=O)N[C@H](CC(C)C)C(=O)N1)C(=O)N[C@@H](CC(C)C)C(N)=O [Peptide 3, guanidino-FVPWF[KKFle]RIL] (X1-VPWFKKF[dL][dE]RIL-NH2; lactam 5-9); 100
CC[C@H](C)[C@H](NC(=O)[C@H](CCCNC(=N)N)NC(=O)[C@@H]1CCCNC(=N)NCCC[C@H](NC(=O)[C@H](Cc2ccccc2)NC(=O)[C@H](Cc2c[nH]c3ccccc23)NC(=O)[C@@H]2CCCN2C(=O)[C@@H](NC(=O)[C@@H](N)Cc2ccccc2)C(C)C)C(=O)N[C@@H](CCCCN)C(=O)N[C@@H](Cc2ccccc2)C(=O)N[C@H](CC(C)C)C(=O)N1)C(=O)N[C@@H](CC(C)C)C(N)=O [Peptide 13, FVPWF{OrnKFlOrn}RIL]; 50
CC[C@H](C)[C@H](NC(=O)[C@H](CCCNC(=N)N)NC(=O)[C@@H]1CCCCNC(=N)NCCCC[C@H](NC(=O)[C@H](Cc2ccccc2)NC(=O)[C@H](Cc2c[nH]c3ccccc23)NC(=O)[C@@H]2CCCN2C(=O)[C@@H](NC(=O)[C@@H](N)Cc2ccccc2)C(C)C)C(=O)N[C@@H](CCCCN)C(=O)N[C@@H](Cc2ccccc2)C(=O)N[C@H](CC(C)C)C(=O)N1)C(=O)N[C@@H](CC(C)C)C(N)=O [Peptide 11, FVPWF{KKFlK}RIL]; 50

---

- Type: cell-based
- condition.set: Cell viability (%)
assay.readout: viability at 2 h, 100 µM (%)

CC[C@H](C)[C@H](NC(=O)[C@H](CCCNC(=N)N)NC(=O)[C@H]1CCCCNC(=N)NCCCC[C@H](NC(=O)[C@H](Cc2ccccc2)NC(=O)[C@H](Cc2c[nH]c3ccccc23)NC(=O)[C@@H]2CCCN2C(=O)[C@@H](NC(=O)[C@@H](N)Cc2ccccc2)C(C)C)C(=O)N[C@@H](CCCCN)C(=O)N[C@@H](Cc2ccccc2)C(=O)N[C@H](CC(C)C)C(=O)N1)C(=O)N[C@@H](CC(C)C)C(N)=O [Peptide 12, FVPWF{KKFlk}RIL]; 4
